# Tested on: Daudi
# assay-method-text: Antiproliferative activity against human Daudi cells assessed as inhibition of cell growth incubated for 48 hrs by CCK-8 assay
# Format: functional, cell-based
measured-attribute: pIC50
One number for each entry, as −log10 of the molar value.

Consider the compound shown here: COc1c(OC)c2c3c(nccc3c1-c1cc(C)cc(C)c1)C(c1cc(C)cc(C)c1)=CN2 What is its recorded pIC50?
5.46
